tested on: THRa:RXRa (NR concentration 90 nM, RXRa partner concentration 90 nM); test: PBM binding z-score (relative to random genomic background probes); higher = stronger binding; sequences stand for … in GC…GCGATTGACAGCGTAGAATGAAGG
measured.property: PBM binding z-score
Form: value (number only, do not type unit).

Record excerpt, results attached:
[
  {
    "biopolymer.sequence": "ACTATTAGTTGAGACGAGGGCAATCGATAGGTTG",
    "PBM binding z-score": 2.22
  },
  {
    "biopolymer.sequence": "AGTCAAAGTTCAGGCCGAGGTAACGTAAAGCACG",
    "PBM binding z-score": 3.78
  },
  {
    "biopolymer.sequence": "AATACAGGGTCATCGTAGGCCAGAGTTCGCACAG",
    "PBM binding z-score": 4.77
  },
  {
    "biopolymer.sequence": "CGAACTAGGTCAGAACAGGACAGTGCAGGATGAT",
    "PBM binding z-score": 3.38
  }
]

Give recorded PBM binding z-score with THRa:RXRa (NR concentration 90 nM, RXRa partner concentration 90 nM) for the following sequence: "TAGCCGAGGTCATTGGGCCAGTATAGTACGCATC" 4.01

Then what about the sequence "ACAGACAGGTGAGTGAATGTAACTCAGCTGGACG" ? 0.0176

###

test system: PPARg:RXRa 270nM:90nM, anti-RXR (NR concentration 270 nM, RXRa partner concentration 90 nM); assay: PBM binding z-score (relative to random genomic background probes); higher = stronger binding; sequences stand for … in GC…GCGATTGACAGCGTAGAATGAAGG
Lab note: anything with PBM binding z-score at or over 0.9 counts as class 1; the rest go in class 0.

# count of solved cases: 5
[
  {
    "biopolymer.sequence": "CAAACTAGGTCACGAAAGGTAAAAGTCGAATGAC",
    "group.label": "class 1"
  },
  {
    "biopolymer.sequence": "TGAATGAGGTTAAAGATCATGGAACGTGGCGTCG",
    "group.label": "class 1"
  },
  {
    "biopolymer.sequence": "CATACAGGGTCAGCTAAGCCAGAGTAGGGACGGC",
    "group.label": "class 1"
  },
  {
    "biopolymer.sequence": "ACTCGGAGGACATAGGTCAGAGCTACGCCAGTGA",
    "group.label": "class 1"
  },
  {
    "biopolymer.sequence": "CCTTACGCGTCACTCCAGGTTATAGCATCGGAGT",
    "group.label": "class 0"
  }
]

As a next step, examine the sequence that follows.
Please indicate if the recorded PBM binding z-score for "CAAACTAGGTCATAGGTCAAAGTCGAGCCAACCA" meets or exceeds 0.9. class 1

###

system: PPARg:RXRa 30nM:10nM, anti-RXR (NR concentration 30 nM, RXRa partner concentration 10 nM); assay: PBM binding z-score (relative to random genomic background probes); higher = stronger binding; sequences stand for … in GC…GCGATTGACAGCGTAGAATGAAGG
Would you mind sorting the entries by PBM binding z-score according to these classes? bottom range: < 0.9; center range: ≥ 0.9 and < 3; top range: ≥ 3

Please indicate the class for "AGTTAAAGTTCAGGACGAGGTAACGTAAAGCACG" based on its PBM binding z-score. center range

Then what about the sequence "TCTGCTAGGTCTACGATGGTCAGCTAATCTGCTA" ? center range

Then what about the sequence "ATGGAAAGGTCGAAGGTGAGTATACCCACCCGAA" ? center range

Then what about the sequence "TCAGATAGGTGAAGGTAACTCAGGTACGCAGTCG" ? top range
